Origin of measurements: ChEMBL document CHEMBL1139618

# system name: C-C chemokine receptor type 3 (Homo sapiens, UniProt P51677)
# Sequence (P51677 whole entry): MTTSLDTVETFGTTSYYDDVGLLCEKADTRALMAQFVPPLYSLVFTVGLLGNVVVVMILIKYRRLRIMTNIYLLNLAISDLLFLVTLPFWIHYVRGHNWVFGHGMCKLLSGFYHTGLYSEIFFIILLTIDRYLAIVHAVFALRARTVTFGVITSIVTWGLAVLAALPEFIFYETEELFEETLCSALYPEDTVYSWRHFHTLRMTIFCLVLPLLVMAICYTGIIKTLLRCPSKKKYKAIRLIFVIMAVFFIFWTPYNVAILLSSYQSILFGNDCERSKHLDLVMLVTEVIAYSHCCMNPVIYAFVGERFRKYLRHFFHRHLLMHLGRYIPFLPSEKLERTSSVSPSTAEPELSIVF
# protocol details: In vitro binding activity against C-C chemokine receptor type 3 using [35S]GTP-gamma-S, as radioligand
pKi: −log10 of the molar value.

- molecule: "CC1CN(Cc2ccc(Cl)c(Cl)c2)CCC1N1CCCC(CNC(=O)c2ccc3ncccc3c2)C1 (centres undefined)"
  system name: "C-C chemokine receptor type 3 (Homo sapiens, UniProt P51677)"
  pKi: 8.14
- molecule: "O=C(NCC1CCCN(C2CCN(Cc3ccc(Cl)c(Cl)c3)CC2)C1)c1cccc2[nH]ccc12 (centres undefined)"
  system name: "C-C chemokine receptor type 3 (Homo sapiens, UniProt P51677)"
  pKi: 7.44
- molecule: "COc1ccccc1C(=O)NCC1CCCN(C2CCN(Cc3ccc(Cl)c(Cl)c3)CC2)C1 (centres undefined)"
  system name: "C-C chemokine receptor type 3 (Homo sapiens, UniProt P51677)"
  pKi: 7.04
- molecule: "CC1(N2CCCC(CNC(=O)c3ccc4ncccc4c3)C2)CCN(Cc2ccc(Cl)c(Cl)c2)CC1 (centres undefined)"
  system name: "C-C chemokine receptor type 3 (Homo sapiens, UniProt P51677)"
  pKi: 7.30
- molecule: "O=C(NCC1CCCN(C2CCN(Cc3ccc(Cl)c(Cl)c3)CC2)C1)c1ccc2[nH]ccc2c1 (centres undefined)"
  system name: "C-C chemokine receptor type 3 (Homo sapiens, UniProt P51677)"
  pKi: 7.54
- molecule: "O=C(NCC1CCCN(C2CCN(Cc3ccc(Cl)c(Cl)c3)CC2)C1)c1cccc2ccccc12 (centres undefined)"
  system name: "C-C chemokine receptor type 3 (Homo sapiens, UniProt P51677)"
  pKi: 7.24
- molecule: "O=C(NCC1CCCN(C2CCN(Cc3ccc(Cl)c(Cl)c3)CC2)C1)c1ccc2ncccc2c1 (centres undefined)"
  system name: "C-C chemokine receptor type 3 (Homo sapiens, UniProt P51677)"
  pKi: 7.64
- molecule: "CC(=O)NCC1CCCN(C2CCN(Cc3ccc(Cl)c(Cl)c3)CC2)C1 (centres undefined)"
  system name: "C-C chemokine receptor type 3 (Homo sapiens, UniProt P51677)"
  pKi: 6.27
- molecule: "O=C(NCC1CCCN(C2CCN(Cc3ccc(Cl)c(Cl)c3)CC2)C1)c1ccc2nc[nH]c2c1 (centres undefined)"
  system name: "C-C chemokine receptor type 3 (Homo sapiens, UniProt P51677)"
  pKi: 7.33

====

# protocol details: In vivo Area under curve in rat at 3 mg/kg after IV administration
# Type: ADME, organism-based
# Design: dose 3 mg/kg, route intravenous

- molecule: "O=C(NCC1CCCN(C2CCN(Cc3ccc(Cl)c(Cl)c3)CC2)C1)c1ccc2ncccc2c1 (stereo unspecified)"
  unit symbol: "ng·h/mL"
  AUC: 264
